Biological target: T1, recombinant His-tagged Der p1 (dust mite, UniProt P08176 99-320, limits assumed)
T1 construct: Recombinant His-tagged protein made by the applicant; also called Der p1-His; Der pl; not shown: His tag
T1 sequence (looked up): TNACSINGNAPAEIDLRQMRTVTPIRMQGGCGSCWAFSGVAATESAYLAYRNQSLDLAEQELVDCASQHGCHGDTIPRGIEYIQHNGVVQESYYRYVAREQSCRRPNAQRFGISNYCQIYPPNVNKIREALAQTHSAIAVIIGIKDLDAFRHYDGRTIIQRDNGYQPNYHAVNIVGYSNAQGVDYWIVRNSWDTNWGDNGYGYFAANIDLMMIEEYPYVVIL
Assay: ELISA, Der p1 on plate, biotinylated peptide at 0.370, duplicate 2
No end group written: not given here.
Measured Quantity: log10 OD450 (log10 of the value in OD450)
A difference of one corresponds to tenfold OD450; all values are log10 with OD450 in OD450.

1. LTGYGMS (also: biotinylated, site not given here, 7-amino acid peptide from a phage display library) [SDAB22110-2-D9] = -1.11

Each of the following entries comes with a recorded value; kindly state log10 OD450 for each.
1. AVVSFYP (also: biotinylated, site not given here, 7-amino acid peptide from a phage display library) [SDAB22110-2-F1]
2. HSGPECG (also: biotinylated, site not given here, 7-amino acid peptide from a phage display library) [SDAB22110-2-D3]
3. GIHMALM (also: biotinylated, site not given here, 7-amino acid peptide from a phage display library) [SDAB22110-2-B2]
4. YPTWAYR (also: biotinylated, site not given here, 7-amino acid peptide from a phage display library) [SDAB22110-2-C3]
5. VVAFGIS (also: biotinylated, site not given here, 7-amino acid peptide from a phage display library) [SDAB22110-2-G1]

Solution:
-1.14
0.13
-1.15
-1.18
-1.09
